# credit: PubChem BioAssay (NCI)

The reader will find reported TGI values listed item by item below.
- System: 786-0 renal
- test-summary: NCI tumour cell line growth inhibition, 48 h

Task: // lookup TGI for CN(/N=C/C=N/N(C)C1=NCCN1)C1=NCCN1
Result: > 100 µM

Task: I am curious: what TGI value has been reported for COC(=O)C(C(=O)C(=O)Nc1ccccc1C)c1nc2ccc([N+](=O)[O-])cc2[nH]c1=O (stereo not drawn) ?
Result: > 100 µM

Now turn to the next compound.
Task: Entry under review: O=C(/C=C/c1cccc(Br)c1)N1CCN(CCOC(c2ccccc2)c2ccccc2)CC1 . Reported TGI?
Result: > 100 µM
